tested on: Cabbage Looper [Trichoplusia ni (Hubner)]; assay: Cabbage looper insecticidal test; assay type: in vivo; conditions: second-instar larvae, percent in solution; 3-5 days
Catalogue of LC50, CL readings, one per entry.

Field: example entries. Status: answers known.
CC(C)C(=Nc1ccc(F)cc1F)OCc1coc(Cc2ccccc2)c1: > 0.1%
Cc1c(COC(=Nc2ccc(C(C)(C)C)cc2)C(C)C)cccc1-c1ccccc1: < 0.1%

Below: the item to evaluate.
Field: LC50, CL (Cabbage Looper [Trichoplusia ni (Hubner)]). Entry: Cc1ccc(N=C(OCc2ccc(F)c(Oc3ccc(F)cc3)c2)C(C)C)cc1F
> 0.1%

###

system: Cabbage Looper [Trichoplusia ni (Hubner)]; assay: Cabbage looper insecticidal test; assay type: in vivo; conditions: second-instar larvae, percent in solution; 3-5 days
Catalogue of LC50, CL readings, one per entry.
Please reply with the bare figure in % and do not write the unit itself.

CC(C)C(=Nc1ccccc1Cl)OCc1cccc(Oc2ccccc2)c1: 0.03
CC(C)C(=Nc1ccc(Br)c(Br)c1)OCc1cccc(Oc2ccc(F)cc2)c1: 0.0005

Field: LC50, CL (Cabbage Looper [Trichoplusia ni (Hubner)]). Entry: CC(C)C(=Nc1ccc(F)c(Cl)c1)OCc1cccc(Oc2ccccc2F)c1
0.0007

Field: LC50, CL (Cabbage Looper [Trichoplusia ni (Hubner)]). Entry: CC(C)C(=Nc1ccc(F)cc1)OCc1coc(Cc2ccccc2)c1
0.0028

Field: LC50, CL (Cabbage Looper [Trichoplusia ni (Hubner)]). Entry: Cc1ccc(Oc2cccc(COC(=Nc3ccc(F)cc3)C(C)C)c2)cc1
0.003

Field: LC50, CL (Cabbage Looper [Trichoplusia ni (Hubner)]). Entry: FC(F)(F)Oc1ccc(N=C(OCc2cccc(Oc3ccccc3)c2)C(Cl)Cl)cc1
0.0025

Field: LC50, CL (Cabbage Looper [Trichoplusia ni (Hubner)]). Entry: CC(C)C(=Nc1ccc2c(c1)OCO2)OCc1c(F)c(F)c(F)c(F)c1F
0.08

Field: LC50, CL (Cabbage Looper [Trichoplusia ni (Hubner)]). Entry: Cc1cccc(N=C(OCc2cccc(Oc3ccccc3)c2)C(C)C)c1C [Compound 249]
0.0025

Field: LC50, CL (Cabbage Looper [Trichoplusia ni (Hubner)]). Entry: CC(C)C(=Nc1ccc(F)c(F)c1F)OCc1ccc(F)c(Oc2ccc(F)cc2)c1
0.00007

Cited source: patent US5070210A
